- Test system: Cholinesterase (Homo sapiens)
- Sequence (P06276 whole entry): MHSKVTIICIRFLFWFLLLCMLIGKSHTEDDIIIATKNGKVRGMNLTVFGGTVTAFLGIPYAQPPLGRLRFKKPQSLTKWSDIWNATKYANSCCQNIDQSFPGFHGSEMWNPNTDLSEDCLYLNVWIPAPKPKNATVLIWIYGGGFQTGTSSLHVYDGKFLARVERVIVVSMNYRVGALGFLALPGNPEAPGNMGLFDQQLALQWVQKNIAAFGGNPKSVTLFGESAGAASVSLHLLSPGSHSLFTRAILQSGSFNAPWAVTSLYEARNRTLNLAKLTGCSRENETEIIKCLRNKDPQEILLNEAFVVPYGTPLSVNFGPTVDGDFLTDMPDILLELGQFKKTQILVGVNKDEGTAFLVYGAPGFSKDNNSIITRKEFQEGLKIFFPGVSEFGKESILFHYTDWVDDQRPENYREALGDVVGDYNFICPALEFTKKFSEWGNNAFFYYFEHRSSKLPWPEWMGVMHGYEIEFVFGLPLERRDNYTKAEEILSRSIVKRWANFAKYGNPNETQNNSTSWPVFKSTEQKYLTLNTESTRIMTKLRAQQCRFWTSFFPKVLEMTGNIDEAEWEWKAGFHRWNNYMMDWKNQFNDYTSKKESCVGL
Value type: log10 of IC50 (log10 of the value in µM)
Scale type: logarithmic (base 10). Underlying IC50 unit: µM.

Asked: Write down measured log10 of IC50 (Cholinesterase (Homo sapiens)) for this compound. Cc1cc(Br)cc(C)c1OCC(=O)NCC1CCN(Cc2ccccc2)CC1
Given back: 0.35

Asked: Write down measured log10 of IC50 (Cholinesterase (Homo sapiens)) for this compound. O=C(COc1cc(F)ccc1[N+](=O)[O-])NCCN1CCN(Cc2ccccc2)CC1
Given back: 0.70

Asked: Write down measured log10 of IC50 (Cholinesterase (Homo sapiens)) for this compound. O=C(COc1ccc(-c2ccccc2)cc1)NCCN1CCN(Cc2ccccc2)CC1
Given back: -0.01

Asked: Write down measured log10 of IC50 (Cholinesterase (Homo sapiens)) for this compound. O=C(COc1ccc(Cl)cc1[N+](=O)[O-])NCCN1CCN(Cc2ccccc2)CC1
Given back: 0.15

Asked: Write down measured log10 of IC50 (Cholinesterase (Homo sapiens)) for this compound. O=C(COc1ccccc1C(F)(F)F)NCC1CCN(Cc2ccccc2)CC1
Given back: 0.01

Asked: Write down measured log10 of IC50 (Cholinesterase (Homo sapiens)) for this compound. O=C(COc1ccc(CCc2ccccc2)cc1)NCC1CCN(Cc2ccccc2)CC1
Given back: 0.71

Asked: Write down measured log10 of IC50 (Cholinesterase (Homo sapiens)) for this compound. O=C(COc1ccccc1C(F)(F)F)NCCN1CCN(Cc2ccccc2)CC1
Given back: -0.30

* * *

I'd appreciate it if you could supply IC50 at 24 h values for the items below.
- Method notes: Cytotoxicity against human SH-SY5Y cells assessed as inhibition of cell viability incubated for 24 hrs by MTT assay
- Type: toxicity, cell-based

Asked: Return IC50 at 24 h (reported value) for this compound: O=C(COc1cc(F)ccc1[N+](=O)[O-])NCCN1CCN(Cc2ccccc2)CC1
Given back: > 100 µM

Asked: Return IC50 at 24 h (reported value) for this compound: O=C(COc1ccc(CCc2ccccc2)cc1)NCCN1CCN(Cc2ccccc2)CC1
Given back: 27.8 µM

Asked: Return IC50 at 24 h (reported value) for this compound: O=C(COc1ccc(Cl)cc1[N+](=O)[O-])NCCN1CCN(Cc2ccccc2)CC1
Given back: > 100 µM

Asked: Return IC50 at 24 h (reported value) for this compound: O=C(COc1ccc(Cl)cc1)NCC1CCN(Cc2ccccc2)CC1
Given back: > 100 µM

* * *

I'd appreciate it if you could supply pIC50 values for the items below.
- Test system: Fatty-acid amide hydrolase 1 (Homo sapiens)
- Sequence (O00519 whole entry): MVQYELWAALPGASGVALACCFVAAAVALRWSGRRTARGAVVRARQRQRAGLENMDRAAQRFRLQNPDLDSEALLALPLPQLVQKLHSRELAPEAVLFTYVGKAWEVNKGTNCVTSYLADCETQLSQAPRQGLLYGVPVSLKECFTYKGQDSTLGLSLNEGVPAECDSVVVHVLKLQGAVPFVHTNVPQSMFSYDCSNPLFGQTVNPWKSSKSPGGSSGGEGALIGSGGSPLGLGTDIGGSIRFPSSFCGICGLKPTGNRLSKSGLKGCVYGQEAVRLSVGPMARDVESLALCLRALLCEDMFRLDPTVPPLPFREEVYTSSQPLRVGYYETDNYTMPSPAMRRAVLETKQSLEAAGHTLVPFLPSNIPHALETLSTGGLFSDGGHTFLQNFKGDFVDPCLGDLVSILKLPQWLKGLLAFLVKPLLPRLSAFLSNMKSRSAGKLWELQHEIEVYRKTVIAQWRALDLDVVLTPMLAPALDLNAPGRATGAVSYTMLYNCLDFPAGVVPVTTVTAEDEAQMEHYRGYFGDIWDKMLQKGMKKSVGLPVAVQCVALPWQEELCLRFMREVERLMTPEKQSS
- Method notes: Inhibition of human recombinant FAAH using AMC-AA as substrate preincubated with enzyme for 10 mins followed by substrate addition for 2 hrs by fluorometric analysis
Note on units: pIC50 is unitless, being -log10 of a concentration expressed in mol/L.

Asked: Return pIC50 (reported value) for this compound: O=C(COc1ccc(Cl)cc1[N+](=O)[O-])NCCN1CCN(Cc2ccccc2)CC1
Given back: 4.38

Asked: Return pIC50 (reported value) for this compound: O=C(COc1cc(F)ccc1[N+](=O)[O-])NCCN1CCN(Cc2ccccc2)CC1
Given back: 4.30

Asked: Return pIC50 (reported value) for this compound: O=C(COc1ccc([N+](=O)[O-])cc1)NCCN1CCN(Cc2ccccc2)CC1
Given back: 4.36

Asked: Return pIC50 (reported value) for this compound: O=C(COc1cc(F)ccc1[N+](=O)[O-])NCC1CCN(Cc2ccccc2)CC1
Given back: 4.55

Asked: Return pIC50 (reported value) for this compound: O=C(Oc1ccc([N+](=O)[O-])cc1)N1CCN(Cc2cccc(Oc3ccccc3)c2)CC1
Given back: 7.72

Asked: Return pIC50 (reported value) for this compound: COc1ccc(OCC(=O)NCC2CCN(Cc3ccccc3)CC2)cc1
Given back: 4.39

Asked: Return pIC50 (reported value) for this compound: O=C(COc1ccc(-c2ccccc2)cc1)NCCN1CCN(Cc2ccccc2)CC1
Given back: 4.19

Asked: Return pIC50 (reported value) for this compound: O=C(COc1ccc(Cc2ccccc2)cc1)NCC1CCN(Cc2ccccc2)CC1
Given back: 4.66

Asked: Return pIC50 (reported value) for this compound: Cc1cc(Br)cc(C)c1OCC(=O)NCC1CCN(Cc2ccccc2)CC1
Given back: 4.54

Asked: Return pIC50 (reported value) for this compound: O=C(COc1ccc([N+](=O)[O-])cc1)NCC1CCN(Cc2ccccc2)CC1
Given back: 4.55

Asked: Return pIC50 (reported value) for this compound: O=C(COc1ccc(Cl)cc1)NCC1CCN(Cc2ccccc2)CC1
Given back: 4.68

Asked: Return pIC50 (reported value) for this compound: COc1ccc(OCC(=O)NCCN2CCN(Cc3ccccc3)CC2)cc1
Given back: 4.28

Asked: Return pIC50 (reported value) for this compound: Cc1cc(Br)cc(C)c1OCC(=O)NCCN1CCN(Cc2ccccc2)CC1
Given back: 4.39

Asked: Return pIC50 (reported value) for this compound: O=C(COc1ccc(Cl)cc1[N+](=O)[O-])NCC1CCN(Cc2ccccc2)CC1
Given back: 4.63

Asked: Return pIC50 (reported value) for this compound: O=C(COc1ccccc1C(F)(F)F)NCCN1CCN(Cc2ccccc2)CC1
Given back: 4.26

Asked: Return pIC50 (reported value) for this compound: O=C(COc1ccc(-c2ccccc2)cc1)NCC1CCN(Cc2ccccc2)CC1
Given back: 4.63

Asked: Return pIC50 (reported value) for this compound: O=C(COc1ccc(CCc2ccccc2)cc1)NCCN1CCN(Cc2ccccc2)CC1
Given back: 4.77

Asked: Return pIC50 (reported value) for this compound: O=C(COc1ccccc1C(F)(F)F)NCC1CCN(Cc2ccccc2)CC1
Given back: 4.42

Asked: Return pIC50 (reported value) for this compound: O=C(COc1ccc(Cc2ccccc2)cc1)NCCN1CCN(Cc2ccccc2)CC1
Given back: 4.63

Asked: Return pIC50 (reported value) for this compound: O=C(COc1ccc(CCc2ccccc2)cc1)NCC1CCN(Cc2ccccc2)CC1
Given back: 4.62
